- measurement protocol: solvent given as SMILES
- condition set: in CCOCC
So basically: is fluorescence lifetime under 2 ns? Then 1.0. Not under? Then 0.0.

| molecule | qualitative label |
| --- | --- |
| c1ccc2nc3cccc(-c4ccc(-n5c6ccccc6c6ccccc65)cc4)c3cc2c1 | 1.0 |
| N#Cc1ccc(-n2cccc2)cc1 | 0.0 |
| Cn1cccc1-c1ccc(C#N)cc1 | 0.0 |
| CCCCCCCCCCCCCCCCOc1cc(C#Cc2ccc3ccccc3c2-c2c(C#Cc3cc(OCCCCCCCCCCCCCCCC)c(C#Cc4ccc(C=C(C#N)C#N)cc4)cc3OCCCCCCCCCCCCCCCC)ccc3ccccc23)c(OCCCCCCCCCCCCCCCC)cc1C#Cc1ccc(C=C(C#N)C#N)cc1 | 0.0 |
| CCC1=C(C)C2=C(C)c3c(C)c(CC)c(C)n3[B-](F)(F)[N+]2=C1C | 0.0 |
| Cc1cc(N(C)C)cc(C)c1/C=C/C=C/c1ccc(C#N)cc1 | 1.0 |
| COc1ccc2c3c(cccc13)C(=O)c1ccccc1-2 | 1.0 |
| COC(=O)C(Cc1ccc2oc(-c3ccc(Nc4ccccc4)cc3)nc2c1)NC(=O)OC(C)(C)C (stereo unspecified) | 0.0 |
| c1ccc(-c2ccc(-c3ccc(N(c4ccccc4)c4ccccc4)cc3)c3nsnc23)cc1 | 0.0 |
| Nc1ccccn1 | 0.0 |
| COC(=O)C(Cc1ccc2oc(-c3ccc4c(c3)c3ccccc3n4-c3ccccc3)nc2c1)NC(=O)OC(C)(C)C (stereo unspecified) | 0.0 |
| CCCCCCCCCCCCCCCCOc1cc(C#Cc2ccc3ccccc3c2)c(OCCCCCCCCCCCCCCCC)cc1C#Cc1ccc(C=C(C#N)C#N)cc1 | 0.0 |
| CN(C)c1ccc(/C=C2\CC/C(=C\c3ccc(C#N)cc3)C2=O)cc1 | 1.0 |
| CN(C)c1ccc(C#Cc2ccccc2)cc1 | 1.0 |
| COc1ccc(-c2nc(C(C)=O)c(C)o2)cc1 | 1.0 |
| COc1c(-c2ccc(N(C)C)cc2)oc2ccccc2c1=O | 1.0 |
| CC(=O)c1nc(-c2ccc(N(C)C)cc2)oc1C | 1.0 |
| O=C1c2ccccc2-c2ccc(Nc3nc(Cl)nc(Cl)n3)c3cccc1c23 | 1.0 |
| O=Cc1ccc(N(c2ccc(C=O)cc2)c2ccc(-c3ccc4c(c3)C(=O)c3ccccc3C4=O)cc2)cc1 | 0.0 |
| N#Cc1cccc2ccccc12 | 0.0 |
| O=C1c2ccccc2C(=O)c2cc(-c3ccc(N(c4ccccc4)c4ccccc4)cc3)ccc21 | 0.0 |
| CC1=C(C(C)(C)C)C(C)=[N+]2C1=C(C)c1c(C)c(C(C)(C)C)c(C)n1[B-]2(F)F | 0.0 |
| c1ccc(-c2ccc(-c3ccc(-n4c5ccccc5c5ccccc54)cc3)c3nsnc23)cc1 | 0.0 |
| Nc1cc(N)cc(-c2nc3ccccc3s2)c1 | 0.0 |
| O=[N+]([O-])c1ccc(F)cc1C1CC(c2cccc3ccccc23)=NN1c1ccccc1 (stereo unspecified) | 0.0 |

###

- measurement protocol: solvent given as SMILES
- condition set: in Cc1ccccc1
Reported fluorescence lifetime values are given for each entry in this list.
recorded endpoint: fluorescence lifetime (ns)

| smiles representation | quantitative result |
| --- | --- |
| CCOC(=O)CN1C(=O)C2=C(c3ccc(C#N)cc3)N(CC(=O)OCC)C(=O)C2=C1c1ccccc1 | 4.24 |
| c1ccc2c(c1)[nH]c1c3[nH]c4ccccc4c3c3nsnc3c21 | 1.02 |
| CC1=CC(c2ccc3cc(N(C)C)ccc3c2)=[O+][B-](F)(F)O1 | 4.08 |
| CN(C)c1ccc(C#Cc2ccccc2)cc1 | 0.58 |
| c1ccc(N2c3ccc4ccccc4c3-c3c4ccccc4cn[n+]3[B-]2(c2ccccc2)c2ccccc2)cc1 | 2.56 |
| CCCCCCCCN1c2ccccc2Sc2cc(/C=C/c3ccc(N(c4ccc(/C=C/c5ccc6c(c5)Sc5ccccc5N6CCCCCCCC)cc4)c4ccc(/C=C/c5ccc(/C=C/c6ccc(N(c7ccc(/C=C/c8ccc9c(c8)Sc8ccccc8N9CCCCCCCC)cc7)c7ccc(/C=C/c8ccc9c(c8)Sc8ccccc8N9CCCCCCCC)cc7)cc6)c6nsnc56)cc4)cc3)ccc21 | 3.53 |
| Fc1c(F)c(-n2c3ccccc3c3ccccc32)c(F)c(-n2c3ccccc3c3ccccc32)c1-c1nnc(-c2ccccc2)o1 | 4.8 |
